All values here come from paper PMC6304311.

# targetUnderTest: NA from influenza A(H3N2) virus isolates (Influenza A virus)
# Assay type: biochemical
# experimentalSetup: read-out: IC50 Statistical cutoff (X 0.75 + 3IQR)
reportedProperty: IC50 (nM)
Answers are plain numbers, in nM.

## Task Would you kindly share the measured IC50 for CCOC(=O)C1=C[C@@H](OC(CC)CC)[C@H](NC(C)=O)[C@@H](N)C1 ?
## Result 0.15
